- Target: full-length human RORγt (Homo sapiens (Human))
- Sequence (P51449 other isoform, or with tags, fused parts or gaps): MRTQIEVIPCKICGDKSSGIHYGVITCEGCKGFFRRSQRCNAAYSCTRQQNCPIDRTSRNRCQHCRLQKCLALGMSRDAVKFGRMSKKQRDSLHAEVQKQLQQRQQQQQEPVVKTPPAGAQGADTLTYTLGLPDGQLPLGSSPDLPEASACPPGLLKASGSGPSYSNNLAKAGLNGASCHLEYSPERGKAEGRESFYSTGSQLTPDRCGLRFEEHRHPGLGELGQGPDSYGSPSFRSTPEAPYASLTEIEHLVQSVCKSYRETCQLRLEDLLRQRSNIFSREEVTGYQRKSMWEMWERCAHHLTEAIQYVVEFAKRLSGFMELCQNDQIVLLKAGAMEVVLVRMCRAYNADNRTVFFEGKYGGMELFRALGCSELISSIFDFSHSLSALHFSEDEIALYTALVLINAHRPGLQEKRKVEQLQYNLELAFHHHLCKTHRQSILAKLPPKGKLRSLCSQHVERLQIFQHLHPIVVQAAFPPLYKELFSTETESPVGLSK
- Assay Overview: RORγt (full-length human) reporter assay, Conditions B or C
- Format: cell-based
- Experimental Context: Conditions B or C; marked *: footnote not given
This listing pairs compounds with measured RORγt (FL) Reporter Assay B or C, % inhibition (value marked *).

>>> data_value("CC[C@H](Nc1cc(C(F)F)c(-c2sc(C(=O)N[C@H](C)CO)nc2C(=O)N2CCC[C@@H]2C)cn1)C(F)(F)F")
"116* %"
>>> data_value("CC[C@H](Nc1cc(C(F)F)c(-c2sc(C(=O)N[C@H](C)[C@H](C)O)nc2C(=O)N2CCC[C@@H]2C)cn1)C(F)(F)F (relative stereo)")
"111* %"

Now for another entry.
**Q:** Recall and state the measured RORγt (FL) Reporter Assay B or C, % inhibition (value marked *) for `C[C@H]1CCCN1C(=O)c1nc(C(=O)NCC(C)(C)O)sc1-c1cnc(NCC(C)(C)C(F)(F)F)cc1C(F)(F)F` .
**A:** 103* %
